The measurements presented in this section are drawn from paper PMC11855827.

test system: C. elegans; assay: microbe, parasite or virus in culture; conditions: Caenorhabditis elegans, 0 h, read-out: Percentage of motility inhibition 0 h, Table S2, C. elegans SS assay, 110 μM, 0 h, averages of 4 data points
measurement name: inhibition at 110 µM (%)
One number for each entry, in %.

Sample records with inhibition at 110 µM:
compound="C=C[C@@H]1C2=CCOC(=O)C2=CO[C@H]1O[C@@H]1O[C@H](CO)[C@@H](O)[C@H](O)[C@H]1O [Gentiopicroside]" units=% quantitative_readout=0
compound="COc1cc(O)c(C(=O)/C=C/c2ccc(O)cc2)c(OC)c1 [Flavokawain C]" units=% quantitative_readout=18
compound="CN1Cc2c(ccc3c2OCO3)-c2ccc3cc4c(cc3c21)OCO4 [Dihydrosanguinarine]" units=% quantitative_readout=0
compound="COc1c(O)cc2c(c1O)[C@@H]1O[C@H](CO)[C@@H](O)[C@H](O)[C@H]1OC2=O [Bergenin]" units=% quantitative_readout=21
compound="COc1ccc(-c2cc(=O)c3c(O)c(OC)c(OC)c(OC)c3o2)cc1 [Gardenin B]" units=% quantitative_readout=6
compound="C[C@H](Cn1cnc2c(N)ncnc21)OCP(=O)(O)O [Tenofovir]" units=% quantitative_readout=22

Kindly consider the entry below.
I'd like to know its inhibition at 110 µM. The compound in question is CC(C)=CCC[C@](C)(O)[C@H]1CC[C@]2(C)[C@@H]1[C@H](O)C[C@@H]1[C@@]3(C)CC[C@H](O)C(C)(C)[C@@H]3[C@@H](O[C@@H]3O[C@H](CO)[C@@H](O)[C@H](O)[C@H]3O[C@@H]3O[C@H](CO)[C@@H](O)[C@H](O)[C@H]3O)C[C@]12C [Ginsenoside Rf]
0

---

tested on: C. elegans; assay: microbe, parasite or virus in culture; settings: Caenorhabditis elegans, 24 h, read-out: Percentage of motility inhibition 24 h, Table S2, C. elegans SS assay, 110 μM, 24 h, averages of 4 data points
Tag: class 1 if measured inhibition at 110 µM is not below 4%, class 0 if it is.

Reference set, count: 5
molecule=C=C(C)[C@@H]1CC[C@]2(C)CC[C@]3(C)[C@H](CC[C@@H]4[C@@]5(C)CC[C@H](O)C(C)(C)[C@@H]5CC[C@]43C)[C@@H]12 answer_label="class 0"
molecule=COc1cc(O)c2c(=O)c(-c3ccc(O)cc3)coc2c1 answer_label="class 1"
molecule=CN(C/C=C/C#CC(C)(C)C)Cc1cccc2ccccc12 answer_label="class 0"
molecule=C=C(C)[C@@H](CC=C(C)C)C[C@@]12C[C@@H](CC=C(C)C)C(C)(C)[C@@](CC=C(C)C)(C(=O)C(C(=O)c3ccc(O)c(O)c3)=C1O)C2=O answer_label="class 0"
molecule=[H]/N=C(\N/C(=N/[H])Nc1ccc(Cl)cc1)NC(C)C answer_label="class 1"

Tell me whether inhibition at 110 µM is at least 4% here: CC(=O)OC/C=C(C)/C=C/C=C(C)/C=C/C1=C(C)CCCC1(C)C [Retinyl acetate]
class 0

Then what about the molecule `COc1cc(O)c(CC=C(C)C)c(O)c1C(=O)/C=C/c1ccc(O)cc1` ?
class 1

---

system: C. elegans; experiment: microbe, parasite or virus in culture; details: Caenorhabditis elegans, 24 h, read-out: Percentage of motility inhibition 24 h, Table S2, C. elegans SS assay, 110 μM, 24 h, averages of 4 data points
Exercise: state measured inhibition at 110 µM for each of the molecules provided.
Answers are plain numbers, in %.

molecule="COc1ccccc1OCC(O)CO (centres unmarked) [Guaifenesin]" quantitative_readout=27
molecule="O=c1cc(-c2ccc(O)cc2)oc2c([C@@H]3O[C@H](CO)[C@@H](O)[C@H](O)[C@H]3O)c(O)cc(O)c12 [Vitexin]" quantitative_readout=0
molecule="O=C(O)CNCC(=O)O [Iminodiacetic acid]" quantitative_readout=0
molecule="COC(=O)Nc1nc2ccc(C(=O)c3ccccc3)cc2[nH]1 [Mebendazole]" quantitative_readout=37

Field: next molecule
Record request: inhibition at 110 µM value, item C=C[C@H]1C[N@@]2CC[C@H]1C[C@@H]2[C@@H](O)c1ccnc2ccc(OC)cc12 [Quinidine]
3
